Value source: patent US12055536B2

tested on: COV362 cells; test: Cell viability assay (dose-response); type: cell-based, human; details: read-out: IC50 for cisplatin
value-kind: IC50 (µM)
Answers are plain numbers, in µM.

Request: Given N.N.[Cl][Pt][Cl] [cisplatin] , respond with its IC50.
Result: 7.19
